Taken from patent US20100249145A1.

Listed molecules paired with reported pIC50
- Study system: VEGF receptor KDR (Homo sapiens, UniProt P35968)
- Construct: made in house; host or cells: Sf9 cells (Spodoptera frugiperda), recombinant baculovirus
- Sequence (P35968 806-1356): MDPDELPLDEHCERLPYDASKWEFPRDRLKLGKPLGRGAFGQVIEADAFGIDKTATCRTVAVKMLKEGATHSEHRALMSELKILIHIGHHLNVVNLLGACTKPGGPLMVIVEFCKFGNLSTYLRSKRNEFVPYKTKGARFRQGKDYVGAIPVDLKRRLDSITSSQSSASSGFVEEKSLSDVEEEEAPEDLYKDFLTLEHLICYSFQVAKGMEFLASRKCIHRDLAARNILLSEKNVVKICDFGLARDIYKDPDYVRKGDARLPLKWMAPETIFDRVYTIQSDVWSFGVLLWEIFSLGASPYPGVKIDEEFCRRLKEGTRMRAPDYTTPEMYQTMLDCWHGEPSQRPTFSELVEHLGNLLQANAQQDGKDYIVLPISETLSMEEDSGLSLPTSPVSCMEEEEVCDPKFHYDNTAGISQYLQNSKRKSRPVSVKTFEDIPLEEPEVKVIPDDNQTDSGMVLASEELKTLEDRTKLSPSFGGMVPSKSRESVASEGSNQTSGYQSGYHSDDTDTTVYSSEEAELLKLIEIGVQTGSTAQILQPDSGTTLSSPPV
- Protocol notes: In vitro receptor tyrosine kinase assay (DELFIA), VEGF receptor KDR
- Format: biochemical
- Experimental context: Table 31; ATP 0.6 uM, enzyme 5 nM; read-out: VEGFR IC50
pIC50: −log10 of the molar value.

See these solved cases before continuing.
C#Cc1ccc(CC(=O)NC(=S)Nc2ccc(Oc3ccnc4cc(-c5ccc(CN(C)CCO)cc5)sc34)c(F)c2)cc1; > 7.30
C#Cc1ccccc1CC(=O)NC(=S)Nc1ccc(Oc2ccnc3cc(-c4cn(C)cn4)sc23)c(F)c1 [drawing 451]; > 7.30
O=C(Cc1ccccc1)NC(=S)Nc1ccc(Oc2ccnc3cc(-c4ccc(CN5CCCC5)cn4)sc23)c(F)c1; > 7.30
CO/N=C(\C)c1cc2nccc(Oc3ccc(NC(=S)NC(=O)Cc4ccccc4)cc3F)c2s1; 6.60 to 7.30
O=C(Cc1ccc(F)cc1)NC(=S)Nc1ccc(Oc2ccnc3cc(-c4cc[n+]([O-])cc4)sc23)c(F)c1; 6.60 to 7.30
CN(CCO)Cc1ccc(-c2cc3nccc(Oc4ccc(NC(=S)NC(=O)Cc5ccccc5)cc4F)c3s2)cc1; > 7.30
CN(c1ccc(NC(=S)NC(=O)Cc2ccccc2)cc1F)c1ccnc2cc(-c3cn(C)cn3)sc12; < 6.30
O=C(Cc1ccccc1)NC(=S)Nc1ccc(Nc2ccnc3ccsc23)c(F)c1; < 6.30
Cc1ccccc1CC(=O)NC(=S)Nc1ccc(Oc2ccnc3cc(C4=CCN(C)CC4)sc23)c(F)c1; 6.30 to 6.60
C#Cc1ccccc1CC(=O)NC(=S)Nc1ccc(Oc2ccnc3cc(-c4cccc[n+]4[O-])sc23)c(F)c1; > 7.30

Task: Name the recorded pIC50 of the item Cn1cnc(-c2cc3nccc(Nc4ccc(NC(=S)NC(=O)Cc5ccccc5)cc4F)c3s2)c1 in your answer.
Output: < 6.30

Task: Name the recorded pIC50 of the item CS(=O)(=O)c1ccc(-c2cc3nccc(Oc4ccc(NC(=S)NC(=O)Cc5ccc(F)cc5)cc4F)c3s2)cc1 in your answer.
Output: 6.60 to 7.30

Task: Name the recorded pIC50 of the item CCn1cnc(-c2cc3nccc(Oc4ccc(NC(=S)NC(=O)Cc5ccccc5C)cc4F)c3s2)c1 [drawing 441] in your answer.
Output: > 7.30

Task: Name the recorded pIC50 of the item Cc1ccccc1CC(=O)NC(=S)Nc1ccc(Oc2ccnc3cc(-c4nccn4C)sc23)c(F)c1 in your answer.
Output: > 7.30

Task: Name the recorded pIC50 of the item COc1cccc(Nc2cc3nccc(Oc4ccc(NC(=S)NC(=O)Cc5ccccc5OC)cc4F)c3s2)c1 in your answer.
Output: < 6.30
